Experiment: Primary qHTS for inhibitors of nuclear receptor binding SET domain protein 2 (NSD2) in an RCH-ACV wild type WT cells (2C) (AID 1645877); also: nearly all actives have a fitted effect of over 70% in size
Details: RCH-ACV (leukaemia line) NSD2 WT (2C) viability, CellTiter-Glo, 72 h; series mostly up to 44.9 µM
Excerpt: Assay Provider: Jonathan D. Licht, MD University of Florida College of Medicine, Gainesville, FL Mutations in epigenetic regulators are common in relapsed pediatric acute lymphoblastic leukemia (ALL). Here, we uncovered the mechanism underlying the relapse of ALL driven by an activating mutation of the NSD2 histone methyltransferase (p.E1099K). […] Correction of this mutation restored glucocorticoid sensitivity. […]
Inconclusive results are not listed. Calls of active or inactive are those of the source. Calls follow the shape of the dose curve; as a rule, active = well fitted inhibition curve with a large enough effect; inconclusive = small, poorly fitted or top-dose-only effect; inactive = no such curve, though single readings can be large or run the other way.
Answer with one of the outcomes given here: active, inactive

In: Hey, what did the test say about CC(C)(CO)n1cc(C(=O)c2cncc(NC(=O)Cc3ccc(Cl)cn3)c2)c2cnc(N)nc21 ?
Out: inactive

In: Hey, what did the test say about CC(=O)Nc1cc(Oc2ccc3c(nc(Nc4ccc(F)cc4F)n3C)c2C)ccn1 ?
Out: active

In: Hey, what did the test say about O=C(NO)c1cnc(NC2(c3cccc(F)c3)CCCCC2)nc1 ?
Out: active

In: Hey, what did the test say about CC(C)(C)C(=O)N1N=CC[C@H]1c1ccccc1 ?
Out: inactive

In: Hey, what did the test say about CC(C)=CCC[C@](C)(O[C@@H]1O[C@H](CO[C@@H]2O[C@H](CO)[C@@H](O)[C@H](O)[C@H]2O)[C@@H](O)[C@H](O)[C@H]1O)[C@H]1CC[C@]2(C)[C@@H]1[C@H](O)C[C@@H]1[C@@]3(C)CC[C@H](O[C@@H]4O[C@H](CO)[C@@H](O)[C@H](O)[C@H]4O[C@@H]4O[C@H](CO)[C@@H](O)[C@H](O)[C@H]4O)C(C)(C)[C@@H]3CC[C@]12C ?
Out: inactive

In: Hey, what did the test say about C[C@H](Nc1nc(N[C@H](C)C(F)(F)F)nc(-c2cccc(Cl)n2)n1)C(F)(F)F ?
Out: inactive

In: Hey, what did the test say about CC(C)n1ncnc1-c1cn2c(n1)-c1ccc(O[C@@H](C)C(N)=O)cc1OCC2 ?
Out: active

In: Hey, what did the test say about CC(C)(O)c1coc(S(=O)(=O)NC(=O)Nc2c3c(cc4c2CCC4)CCC3)c1 ?
Out: inactive

In: Hey, what did the test say about COC1=C2C[C@H](C)C[C@H](OC)[C@H](O)[C@@H](C)/C=C(/C)[C@H](OC(N)=O)[C@@H](OC)/C=C\C=C(\C)C(=O)NC(=CC1=O)C2=O ?
Out: inactive

In: Hey, what did the test say about CC(C)(O)CC[C@@H](O)[C@](C)(O)[C@H]1CC[C@@]2(O)C3=CC(=O)[C@@H]4C[C@@H](O)[C@@H](O)C[C@]4(C)[C@H]3CC[C@]12C ?
Out: inactive

In: Hey, what did the test say about COc1cc(C)[nH]c(=O)c1CN1CCc2c(Cl)cc([C@H](OC)C3COC3)c(Cl)c2C1=O ?
Out: inactive

In: Hey, what did the test say about OC1CCC(Oc2cccc3cnc(Nc4ccc5nc[nH]c5c4)nc23)CC1 (stereo unspecified) ?
Out: active

In: Hey, what did the test say about Fc1cccc(-n2cnc3c(NCc4nc5c(F)c(F)ccc5[nH]4)nc(N4CCOCC4)nc32)c1 ?
Out: active

In: Hey, what did the test say about O=C(CCCCCCC(=O)N/N=C/c1ccc(N(c2ccccc2)c2ccccc2)cc1)NO ?
Out: active

In: Hey, what did the test say about Cn1ncc(NC(=O)c2nc(-c3c(F)cccc3F)sc2N)c1N1CC[C@@H](N)[C@H](F)CC1 ?
Out: inactive

In: Hey, what did the test say about COc1ccc(N2C(=O)N(c3c(C)cccc3Cl)Cc3cnc(Nc4ccc(C5CCN(C)CC5)cc4OC)nc32)nc1 ?
Out: active

In: Hey, what did the test say about O=C(Nc1cccc(C(F)(F)F)c1)c1cccc2cc(Oc3cc(CO)ncn3)ccc12 ?
Out: inactive

In: Hey, what did the test say about C[C@]12CC[C@H](O)CC1=CC[C@@H]1[C@@H]2CC[C@]2(C)C(c3cccnc3)=CC[C@@H]12 ?
Out: inactive

In: Hey, what did the test say about C/C(=N\NC(=O)c1cccc(S(=O)(=O)N2CCOCC2)c1)c1cc(Cl)ccc1O ?
Out: active

In: Hey, what did the test say about C[C@@H](Oc1ccc2[nH]nc(/C=C/c3cnn(CCO)c3)c2c1)c1c(Cl)cncc1Cl ?
Out: active

In: Hey, what did the test say about CN(Cc1ccc(/C=C/C(=O)NO)cc1)CC12CC3CC(CC(C3)C1)C2 ?
Out: active

In: Hey, what did the test say about CCS(=O)(=O)c1ccc2oc(-c3ccc4ccccc4c3)nc2c1 ?
Out: inactive

In: Hey, what did the test say about Cc1c(C(=O)Nc2ccc(Oc3ccnc4[nH]cc(-c5ccccc5)c34)c(F)c2)c(=O)n(-c2ccc(F)cc2)n1C ?
Out: active

In: Hey, what did the test say about CO[C@H]1/C=C/O[C@@]2(C)Oc3c(C)c(O)c4c(O)c(c5c(nc6cc(C)ccn65)c4c3C2=O)NC(=O)/C(C)=C\C=C\[C@H](C)[C@H](O)[C@@H](C)[C@@H](O)[C@@H](C)[C@H](OC(C)=O)[C@@H]1C ?
Out: active

In: Hey, what did the test say about CN(C)C[C@@H]1CCn2cc(c3ccccc32)C2=C(C(=O)NC2=O)c2cn(c3ccccc23)CCO1 ?
Out: active

In: Hey, what did the test say about O=S(=O)(Nc1ccc(-c2cccnc2)c2cccnc12)c1cccc(C(F)(F)F)c1 ?
Out: active

In: Hey, what did the test say about CO[C@H]1/C=C\C=C(\C)C(=O)NC2=CC(=O)C(NCCN(C)C)=C(C[C@@H](C)C[C@H](OC)[C@H](O)[C@@H](C)/C=C(/C)[C@@H]1OC(N)=O)C2=O ?
Out: active

In: Hey, what did the test say about [2H]c1nc(C)nc([2H])c1-c1cc(NC[C@@H](C)c2cccc3c(C(=O)NC)ccnc23)ncn1 ?
Out: inactive

In: Hey, what did the test say about C=CCN(/C=C1\C(=O)O[C@@H](COC)[C@]2(C)C1=C(O)C(=O)C1=C2[C@@H](OC(C)=O)C[C@]2(C)C(=O)CC[C@H]12)CC=C ?
Out: active

In: Hey, what did the test say about CNCCn1c(=O)c2cc(OC)c(OC)cc2c2cnc3cc4c(cc3c21)OCO4 ?
Out: active

In: Hey, what did the test say about O=C1NC(=O)[C@@H](c2c[nH]c3ccccc23)[C@H]1c1cn2c3c(cccc13)CCC2 ?
Out: active
